- target_desc: Polyunsaturated fatty acid lipoxygenase ALOX15 (Homo sapiens)
- Sequence (P16050 whole entry): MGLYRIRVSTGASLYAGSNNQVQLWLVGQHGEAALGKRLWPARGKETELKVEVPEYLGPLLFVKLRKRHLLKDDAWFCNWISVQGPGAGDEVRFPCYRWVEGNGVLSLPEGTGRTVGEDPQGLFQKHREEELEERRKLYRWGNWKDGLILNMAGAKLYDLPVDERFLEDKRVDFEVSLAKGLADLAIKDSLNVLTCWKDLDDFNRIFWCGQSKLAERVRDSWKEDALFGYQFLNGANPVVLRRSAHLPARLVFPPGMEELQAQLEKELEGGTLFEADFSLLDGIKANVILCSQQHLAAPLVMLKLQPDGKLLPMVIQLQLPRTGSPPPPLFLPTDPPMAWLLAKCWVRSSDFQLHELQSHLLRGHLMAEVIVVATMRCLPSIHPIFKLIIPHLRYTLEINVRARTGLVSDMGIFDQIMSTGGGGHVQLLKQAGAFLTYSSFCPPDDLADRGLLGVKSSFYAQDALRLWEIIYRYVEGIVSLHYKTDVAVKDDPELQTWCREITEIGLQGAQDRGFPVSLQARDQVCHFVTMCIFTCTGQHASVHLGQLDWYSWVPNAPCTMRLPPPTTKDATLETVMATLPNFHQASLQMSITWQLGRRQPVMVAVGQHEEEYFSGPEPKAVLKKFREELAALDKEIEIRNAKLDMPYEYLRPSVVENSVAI
- procedure_details: Inhibition of human N-terminal His6-tagged reticulocyte 15-lipoxygenase-1 after 15 mins by UV-vis spectrophotometer analysis
- experimental_parameters: read-out: Ki(app)
attribute_measured: Ki

O=C(OCC#CCSc1nnc(-c2cccc(F)c2)o1)c1ccc(F)cc1 = < 10 nM
O=C(OCC#CCSc1nnc(-c2ccc3ccccc3c2)o1)c1ccc(F)cc1 = < 10 nM
COc1ccc(C(=O)OCC#CCSc2nnc(-c3cccc4ccccc34)o2)cc1 = < 10 nM
Fc1ccc(COCC#CCSc2nnc(-c3cccc4ccccc34)o2)cc1 = > 100000 nM
O=C(OCC#CCSc1nnc(-c2cccc3ccccc23)o1)c1ccc(F)cc1F = < 10 nM
O=C(OCC#CCSc1nnc(-c2ccc(Cl)cc2)o1)c1ccc(F)cc1 = < 10 nM

Exercise: Give a short answer stating reported Ki for `O=C(OCC#CCSc1nnc(-c2cccc3ccccc23)o1)c1ccccc1` .
Key: < 10 nM

Exercise: Give a short answer stating reported Ki for `O=C(OCC#CCSc1nnc(-c2ccco2)o1)c1ccc(F)cc1` .
Key: 1000 nM

Exercise: Give a short answer stating reported Ki for `O=C(OCC#CCSc1nnc(-c2cccc3ccccc23)o1)c1cnc[nH]1` .
Key: 1400 nM

Exercise: Give a short answer stating reported Ki for `O=C(OCC#CCSc1nnc(-c2cccc3ccccc23)o1)c1csc2ccccc12` .
Key: < 10 nM

====

- target_desc: Polyunsaturated fatty acid lipoxygenase ALOX15 (Homo sapiens, UniProt P16050)
- procedure_details: Inhibition of human N-terminal His6-tagged reticulocyte 15-lipoxygenase-1 catalytic site assessed as 15-HPETE formation by Michaelis-Menten equation analysis
attribute_measured: Ki (µM)
Report the value in µM with no unit label.

Exercise: Give a short answer stating reported Ki for `O=C(OCC#CCSc1nnc(-c2cccc3ccccc23)o1)c1cnc[nH]1` .
Key: 0.87
